tested on: Sprague-Dawley rats; test: In vivo method for determining the effect on heart contractility (left ventricular dp/dtmax); design: species or system rat; details: anesthetized male Sprague-Dawley rats, intravenous, 0.1 mg/kg, vs solvent control
valueType: Contractility increase (left ventricular contractility) (%)
All answers are understood in %, so give the number only.

Illustrative cases are given below, each with its answer.
Cc1ccccc1C1CCc2cc(OC3CCC(NCc4c(C)nn(C)c4C)CC3)ccc2O1 (stereo not drawn) : 29
O=C(N[C@H]1CC[C@H](Oc2ccc3c(c2)CCC(c2ccccc2)O3)CC1)[C@@H]1CCCN1 (stereo partly drawn) : 26

Let us move to another entry and its Contractility increase (left ventricular contractility).
Prompt: Lookup: Contractility increase (left ventricular contractility) / Sprague-Dawley rats / Cc1ccccc1[C@@H]1CCc2cc(O[C@H]3CC[C@H](C(=O)NCCOP(=O)([O-])[O-])CC3)ccc2O1.[Na+].[Na+]
Response: 69

====

molecular target: human NCX1 (Homo sapiens); construct: expressed in transfected cells; experiment: Inhibition of Ca2+ influx into cells (NCX1 reverse mode), FLIPR Fluo-4 assay; format: cell-based; conditions: inhibition of NCX1 in reverse mode (Ca2+ influx into cells); read-out: NCX1rv IC50
valueType: IC50 (nM)
Numeric answer only, unit nM assumed.

Cc1nc(CNC(=O)[C@H]2CC[C@@H](Oc3ccc4c(c3)CCC(c3ccccc3)O4)CC2)no1 (single isomer, unassigned; stereoisomer 1) [compound 95] : 200
Cc1c(F)cccc1C1CCc2cc(OC3CCC(C(=O)NC4CCCC4O)CC3)ccc2O1 (single isomer, unassigned; stereoisomer 1) [compound 279] : 700
CC(C)OCCCNC1CCC(Oc2ccc3c(c2)CCC(c2ccccc2F)O3)CC1 (stereo not shown) : 3900
O=C(NCc1ccno1)C1CCC(Oc2ccc3c(c2)CCC(c2ccccc2)O3)CC1 (stereo not shown) : 300

Prompt: Look up IC50: CSCC(=O)N[C@H]1CC[C@H](Oc2ccc3c(c2)CCC(c2ccccc2)O3)CC1 (relative stereo)
Response: 100

Prompt: Also Fc1ccccc1C1CCc2cc(OC3CCC(NCCCOC4CCCC4)CC3)ccc2O1 (stereo not shown) , if possible.
Response: 6000

Prompt: What about this molecule? COC[C@H](C)NC1CCC(Oc2ccc3c(c2)CCC(c2ccccc2F)O3)CC1 (stereo partly shown)
Response: 2300

====

Overview of recorded IC50 for various compounds
biological target: human NCX1 (Homo sapiens); construct: expressed in transfected cells; experiment: Inhibition of Ca2+ influx into cells (NCX1 reverse mode), FLIPR Fluo-4 assay; type: cell-based; settings: inhibition of NCX1 in reverse mode (Ca2+ influx into cells); read-out: NCX1rv IC50
Structures can show the parent of a compound that is named as a salt.
Value expressed in nM; do not type the unit.

Here is how some compounds turned out for IC50.
CC(C)(C)CN[C@H]1CC[C@H](Oc2ccc3c(c2)CCC(c2ccccc2)O3)CC1 (relative stereo) [compound 58] : 600
Cc1c(F)cccc1C1CCc2cc(OC3CCC(C(=O)NC4CCCCC4O)CC3)ccc2O1 (single isomer, unassigned) [compound 287] : 100
c1ccc(C2CCc3cc(O[C@H]4CC[C@H](NCc5nccs5)CC4)ccc3O2)cc1 (relative stereo) [compound 55] : 400
Cc1nc(CNC(=O)[C@H]2CC[C@@H](Oc3ccc4c(c3)CCC(c3ccccc3)O4)CC2)no1 (single isomer, unassigned; stereoisomer 2) [compound 96] : 400
CCOCCCNC1CCC(Oc2ccc3c(c2)CCC(c2ccccc2F)O3)CC1 (stereo not drawn) [compound 223] : 3100

Prompt: API: value(readout=IC50, system=human NCX1 (Homo sapiens)) for record Fc1ccccc1C1CCc2cc(OC3CCC(NC4CCOCC4)CC3)ccc2O1 (stereo not drawn) [compound 231]
Response: 4100

Prompt: Moving on to Cc1ccccc1C1CCc2cc(O[C@H]3CC[C@@H](C(=O)Nc4ccccn4)CC3)ccc2O1 (relative stereo) [compound 265]
Response: 400

Prompt: // repeat for Cc1ccccc1C1CCc2cc(OC3CCC(C(=O)NCc4ccno4)CC3)ccc2O1 (stereo not drawn) [Example 158] and report
Response: 400

Prompt: Request: CNC(=O)CNC(=O)C1CCC(Oc2ccc3c(c2)CCC(c2cccc(F)c2C)O3)CC1 (stereo not drawn) [compound 281]
Response: 500

Prompt: Entry to check: NCC1CCC(Oc2ccc3c(c2)CCC(c2ccccc2)O3)C1 (stereo not drawn) [compound 305, hydrochloride]
Response: 1500

Prompt: Same again, this time with Cc1cc2c(cc1OC1CCC(C(=O)NCc3ccno3)CC1)CCC(c1ccccc1C)O2 (stereo not drawn) [compound 289]
Response: 1300

Prompt: What do you get for Cc1cc(CN[C@H]2CC[C@H](Oc3ccc4c(c3)CCC(c3ccccc3)O4)CC2)no1 (stereo partly drawn) [compound 49] ?
Response: 600

Prompt: Do the same for O=C(N[C@H]1CC[C@H](Oc2ccc3c(c2)CCC(c2ccccc2)O3)CC1)C1CC1(F)F (relative stereo) [compound 32] please
Response: 100

Prompt: Same read-out for CCCCNC1CCC(Oc2ccc3c(c2)CCC(c2ccccc2F)O3)CC1 (stereo not drawn) [compound 230] ?
Response: 2900

Prompt: Continue with Cc1ccccc1C1CCc2cc(O[C@H]3CC[C@H](N)CC3)ccc2O1.Cl (stereo partly drawn) [Example 156]
Response: 600

Source listed as patent US9440941B2.
